Biological target: T1, NativeRPtag(large)_with_Tags_and_Cys (Thermoanaerobacter tengcongensis)
T1 construct: Unlabeled in anisotropy assays; coupled through the engineered N-terminal Cys to SulfoLink agarose or maleimide plates in column, pull-down and ELISA assays
T1 chain: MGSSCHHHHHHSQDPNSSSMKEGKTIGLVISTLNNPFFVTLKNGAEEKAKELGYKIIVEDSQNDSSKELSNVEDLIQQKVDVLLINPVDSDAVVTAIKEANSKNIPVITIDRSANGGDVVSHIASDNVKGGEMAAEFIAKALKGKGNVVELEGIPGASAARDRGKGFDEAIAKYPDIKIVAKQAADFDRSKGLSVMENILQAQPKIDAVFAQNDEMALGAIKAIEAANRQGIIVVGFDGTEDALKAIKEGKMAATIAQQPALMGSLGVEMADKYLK
Experiment: fluorescence anisotropy, association kinetics
No end group written: not given here. *: point of attachment. RhodamineB = CCN(CC)c1ccc2c(-c3ccccc3C(=O)*)c3ccc(=[N+](CC)CC)cc-3oc2c1
Property name: kr (S* to S) (min⁻¹)

[[record]]
binder = "RhodamineB-GEKIPNFIPAELKLITKANVQ [RPtag(small) e18a]"
result_number = 0.048

[[record]]
binder = "RhodamineB-GEKIPNFIPAELKLITKENAQ (built here from the native peptide with the stated change) [RPtag(small) v20a]"
result_number = 0.05

[[record]]
binder = "RhodamineB-ELKLITKE [RPtag(small) Nd10, Cd3]"
result_number = 0.05

[[record]]
binder = "RhodamineB-GEKIPNFIPAELKLITK [RPtag(small) Cd4]"
result_number = 0.11

